Assay: Maximum plasma concentration from in vivo pharmacokinetic studies after therapeutic dosing
Settings: human, the literature Cmax (ng/mL) of Table 2 expressed in µM
Description: As Cmax the (geometric) mean or median maximum plasma concentrations obtained from previous in vivo pharmacokinetic studies after therapeutic dosing was used.
Where a name gives a salt, the structure may show the parent alone.

COMPOUND | UNIT OF MEASURE | Cmax
CCN(CC)Cc1cc(Nc2ccnc3cc(Cl)ccc23)ccc1O [Amodiaquine, amodiaquine dihydrochloride dehydrate] | µM | 0.015
CCc1nc(N)nc(N)c1-c1ccc(Cl)cc1 | µM | 1.1
[H]/N=C(\N/C(=N/[H])Nc1ccc(Cl)cc1)NC(C)C [Proguanil, proguanil hydrochloride] | µM | 1.2
C=C[C@H]1C[N@@]2CC[C@H]1C[C@H]2[C@H](O)c1ccnc2ccc(OC)cc12 | µM | 35

---

Target: human OCT2 (Homo sapiens)
Construct: host or cells: HEK293, baculovirus transduction (CMV promoter), transient
Sequence (O15244 whole entry): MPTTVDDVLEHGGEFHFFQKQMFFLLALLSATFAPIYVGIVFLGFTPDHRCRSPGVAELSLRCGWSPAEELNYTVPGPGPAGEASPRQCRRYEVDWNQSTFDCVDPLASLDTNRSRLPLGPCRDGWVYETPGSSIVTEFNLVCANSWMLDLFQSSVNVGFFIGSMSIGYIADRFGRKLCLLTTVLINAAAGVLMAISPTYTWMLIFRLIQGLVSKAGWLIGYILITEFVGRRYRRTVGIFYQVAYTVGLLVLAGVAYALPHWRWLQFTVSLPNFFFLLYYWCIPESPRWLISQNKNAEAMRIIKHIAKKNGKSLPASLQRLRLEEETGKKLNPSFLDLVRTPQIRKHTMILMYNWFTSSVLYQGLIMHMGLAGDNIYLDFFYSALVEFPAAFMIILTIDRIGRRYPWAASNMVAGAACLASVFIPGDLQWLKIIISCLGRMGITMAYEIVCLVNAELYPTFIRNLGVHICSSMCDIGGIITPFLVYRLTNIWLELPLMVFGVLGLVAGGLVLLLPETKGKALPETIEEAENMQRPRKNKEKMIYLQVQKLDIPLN
Experiment: Inhibition of OCT2-mediated ASP uptake in transduced HEK293 cells
Format: cell-based
Details: 50 µM anti-malarial, 10 µM ASP, 10 min, 37 °C; relative to solvent control fixed at 100%
Where a name gives a salt, the structure may show the parent alone.

COMPOUND | Relative ASP uptake (OCT2-mediated) [%]
COc1cc(NC(C)CCCN)c2ncccc2c1 (centres unmarked) [Primaquine, primaquine diphosphate] | 60
CCc1nc(N)nc(N)c1-c1ccc(Cl)cc1 [Pyrimethamine, pyrimethamine] | 6
CCN(CC)Cc1cc(Nc2ccnc3cc(Cl)ccc23)ccc1O [Amodiaquine, amodiaquine dihydrochloride dehydrate] | 12.1
[H]/N=C(\N/C(=N/[H])Nc1ccc(Cl)cc1)NC(C)C [Proguanil, proguanil hydrochloride] | 19
C[C@@H]1CC[C@H]2[C@@H](C)C(=O)O[C@@H]3O[C@@]4(C)CC[C@@H]1[C@]32OO4 [Artemisinin, artemisinin] | 61

---

Measured pIC50 accompanies every entry in the list below.
Molecular target: human OCT2 (Homo sapiens)
Experiment: Inhibition of OCT2-mediated ASP uptake in transduced HEK293 cells
Conditions: 10 µM ASP, 10 min, 37 °C, seven concentrations
pIC50: −log10 of the molar value. Where a name gives a salt, the structure may show the parent alone.
QUANTITY NAME: pIC50

MOLECULE | QUANTITY NAME | ASSAY RESULT
[H]/N=C(\N/C(=N/[H])Nc1ccc(Cl)cc1)NC(C)C [Proguanil, proguanil hydrochloride] | pIC50 | 4.89
CCc1nc(N)nc(N)c1-c1ccc(Cl)cc1 [Pyrimethamine, pyrimethamine] | pIC50 | 5.80
CCN(CC)Cc1cc(Nc2ccnc3cc(Cl)ccc23)ccc1O [Amodiaquine, amodiaquine dihydrochloride dehydrate] | pIC50 | 4.96

---

Measured Relative ASP uptake (OCT1-mediated) accompanies every entry in the list below.
Target: human OCT1 (Homo sapiens)
Construct: host or cells: HEK293, baculovirus transduction (CMV promoter), transient
Sequence (O15245 1-554): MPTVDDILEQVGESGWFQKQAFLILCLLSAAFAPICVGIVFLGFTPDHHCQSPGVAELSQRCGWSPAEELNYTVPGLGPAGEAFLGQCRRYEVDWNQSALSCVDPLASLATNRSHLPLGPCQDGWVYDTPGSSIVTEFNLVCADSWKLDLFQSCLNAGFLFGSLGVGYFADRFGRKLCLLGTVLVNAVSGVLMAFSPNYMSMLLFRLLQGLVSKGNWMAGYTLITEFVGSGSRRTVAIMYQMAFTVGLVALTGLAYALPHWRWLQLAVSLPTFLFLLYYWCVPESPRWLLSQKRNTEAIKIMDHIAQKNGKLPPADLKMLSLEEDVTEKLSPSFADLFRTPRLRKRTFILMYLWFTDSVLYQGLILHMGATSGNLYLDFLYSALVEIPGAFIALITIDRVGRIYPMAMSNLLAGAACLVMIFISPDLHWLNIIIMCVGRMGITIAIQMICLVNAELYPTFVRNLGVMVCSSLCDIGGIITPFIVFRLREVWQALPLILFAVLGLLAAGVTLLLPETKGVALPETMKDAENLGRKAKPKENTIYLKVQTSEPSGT
Assay: Inhibition of OCT1-mediated ASP uptake in transduced HEK293 cells
Format: cell-based
Conditions: 50 µM anti-malarial, 10 µM ASP, 10 min, 37 °C; relative to solvent control fixed at 100%
Counter-ions that a name gives are not always drawn.
QUANTITY NAME: Relative ASP uptake (OCT1-mediated) (%)

COMPOUND | UNIT OF MEASURE | ASSAY RESULT
COc1cc(NC(C)CCCN)c2ncccc2c1 (centres unmarked) [Primaquine, primaquine diphosphate] | % | 59
CCN(CC)Cc1cc(Nc2ccnc3cc(Cl)ccc23)ccc1O [Amodiaquine, amodiaquine dihydrochloride dehydrate] | % | 67
[H]/N=C(\N/C(=N/[H])Nc1ccc(Cl)cc1)NC(C)C [Proguanil, proguanil hydrochloride] | % | 60
CCc1nc(N)nc(N)c1-c1ccc(Cl)cc1 | % | 59
OC(c1cc(C(F)(F)F)nc2c(C(F)(F)F)cccc12)C1CCCCN1 (centres unmarked) [Mefloquine, mefloquine hydrochloride] | % | 150

Values from paper PMC5654082
